Measured values drawn from PubChem BioAssay for this set.

I'd be grateful if you could share measured composite z-score for these entries.
Assay: small-molecule microarray binders of probe aDKK1, primary screen, biochemical, biotinylated probe, 635/667 nm fluorescence (AID 1099);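 note: score merges 667nm spot fluorescence with signal to noise across triplicate slides; reference of the scale not given here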
Details: higher = more signal
Give the value as a plain number.

Sample COC(=O)[C@H](C)NC(=O)CCC1CC(OC(=O)NCc2cccc3ccccc23)CC2(CCCC(COC(=O)NCCc3ccc(Cl)cc3)O2)O1 (some centres undefined) ; composite z-score observed: -0.299

Entry Cn1cccc1C(O)C1C=CC2C(=O)NC(=O)C2N1Nc1ccccn1 (centres undefined) ; composite z-score = 0.0275

In plain terms, C=CCNC(=O)[C@H]1[C@@H]2C(=O)O[C@@H](c3ccccc3)[C@@H](c3ccccc3)N2[C@@H](c2ccc(O)cc2)[C@]12C(=O)N(C(=O)OCCOC)c1ccc(C#CC3=CCCCC3)cc12 has a documented composite z-score of 0.298

composite z-score measured on CC(C)CON=C1[C@H]2CCn3c(=O)n(-c4ccccc4)c(=O)n3[C@H]2[C@H](O)[C@@H]2O[C@H]12 = -0.217

Measured composite z-score, COc1ccc(O[C@H]2C=C[C@@H](c3ccccc3)O[C@@H]2COC(=O)CCC(C)=NO[C@H](C)c2cn([C@@H]3COC[C@H]3O)nn2)cc1 : -0.226

So for CO[C@H]([C@@H](C)[C@H](OC)c1ccccc1)[C@H](C)[C@@H](OC)[C@H](C)C(C)=O , the logged composite z-score turned out to be -0.442

Consider CC(=O)OC[C@H]1O[C@H](CCON=C(C)CCN2CCc3nc(-c4ccccc4)c(-c4ccccc4)cc3C2)C=C[C@@H]1OC(C)=O . Its measured composite z-score is -0.154

Noted for CO[C@@H]1COC(=O)CCC[C@@H](C)[C@H](OC)COC(=O)[C@H](Cc2ccccc2)NC(=O)CC=C[C@H]1C : its composite z-score reads -0.485

CCOC(=O)[C@H](Cc1ccccc1)NC(=O)CCC1CC(OC(=O)NCc2ccc3c(c2)OCO3)CC2(CCCC(COC(=O)NCC(c3ccccc3)c3ccccc3)O2)O1 (some centres undefined) has a reported composite z-score of -0.0362

The measured composite z-score associated with COc1ccc(COC(=O)NN=C2C[C@@H](O)[C@@H](O)[C@@H]3[C@@H]4C(=O)N(c5ccc(F)cc5F)C(=O)[C@@H]4CC[C@@H]23)cc1 reads 0.262

Sample CN1C(=O)C2C=CC(C(O)C(c3ccccc3)c3ccccc3)N(NC(=O)OC(C)(C)C)C2C1=O (centres undefined) ; composite z-score observed: 1.21

So, CC(C)CN1CCc2nc(-c3ccccc3)c3c(c2CC1)CO[C@@H](C)C3 ? Its composite z-score was 0.256

In plain terms, CO[C@@H]1COC(=O)CC=C[C@@H](C)[C@@H]2C=C[C@H](O)[C@@H](COC(=O)CCC[C@H]1C)O2 has a documented composite z-score of -0.177

Lab note: measured composite z-score of CCN1C(=O)[C@H]2[C@H]3[C@H](O)[C@H](O)CC(=NOCc4ccccc4)[C@H]3CC[C@H]2C1=O was -0.237

The recorded composite z-score for entry CO[C@H]1COC(=O)[C@@H]2CCCN2C(=O)CC=C[C@@H](C)[C@H](OC)COC(=O)CC=C[C@@H]1C equals -0.569

Looking up CN1C(=O)[C@@]2(CCC(=O)OC(C)(C)C)N=C(c3ccc(OCCCO)cc3)O[C@H]2c2ccccc21 , I found its composite z-score recorded as 0.0179

The value of composite z-score measured for the compound COC(=O)[C@@]1(Cc2ccccc2)[C@H]2c3cc(C(=O)N4CCCC4)n(Cc4ccccn4)c3C[C@H]2CN1C(=O)c1ccccc1 turned out to be 1.52

get_value(item= COc1ccc([Si](C)(C)[C@H]2[C@H](CC(=O)N3CCC[C@H]3CO)O[C@@]3(C(=O)N(Cc4cccc(N5C(=O)COc6ccccc65)c4)c4ccccc43)[C@@H]2C)cc1 , readout=composite z-score) returns -0.248

# composite z-score of CCOC(=O)C1=CC[C@H]2C(=O)N(CC)C(=O)[C@@H]12 = -0.146

Please fill in: composite z-score reported for CO[C@@H]1COC(=O)[C@@H]2CCCN2C(=O)[C@@H](C)COC(=O)[C@H](COCc2ccccc2)NC(=O)CC=C[C@H]1C = -0.559

GET /value?item= [N-]=[N+]=Nc1ccccc1C[C@@]1(C(N)=O)N=C(c2ccc(OCCCO)cc2)O[C@@H]1c1ccccc1 &field=composite z-score returns 1.53

Recorded result, CCCC[C@@H]1C[C@H]1[C@@H](NS(=O)(=O)c1cccc2cccnc12)c1ccc(-c2ccccc2)cc1 , composite z-score: 0.583

Reported composite z-score for O=C1[C@H]2[C@H]3[C@H](O)[C@H](O)CC(=NOC[C@@H](O)COCc4ccco4)[C@@H]3CC[C@H]2C(=O)N1c1ccc(F)cc1F was -0.399

get_value(item= CC(CCC(=O)OC[C@H]1O[C@H](C#Cc2ccccc2)C=C[C@@H]1Oc1ccc(C)cc1)=NOC[C@@H](O)[C@H]1O[C@@H]2OC(C)(C)O[C@@H]2[C@H]1O , readout=composite z-score) returns -0.339

Briefly, composite z-score measured for CC(C)(C)N1CC=CC23O[C@@H]4C=CCCOC(=O)C4[C@H]2C(=O)N(CCCCCO)[C@@H]3C1=O (some centres undefined) : -0.399

composite z-score reported for this compound CC(CCN1CCc2nc(-c3ccccc3)c(-c3ccccc3)cc2C1)=NOC[C@@H](C)[C@H](OCc1ccccc1)C(C)C : -0.215

Record COC(=O)C1(C)C=C2C(=C(c3ccccc3)C(=O)C2C)CN1 (centres undefined) . Reported composite z-score: 1.14

The reported composite z-score of the compound Cc1ccc(S[C@]2(C(=O)NCC(F)(F)F)CC(=O)N(Cc3ccccc3Cl)[C@@H]2c2ccc(CO)cc2I)cc1 was 0.122

Sample CC(C)(C)N1C(=O)[C@H]2[C@H]3[C@H](O)[C@H](O)CC(=NO[C@@H]4O[C@H](CO)[C@@H](O)[C@H](O)[C@H]4O)[C@@H]3CC[C@H]2C1=O ; composite z-score observed: -0.393
